# systemUnderTest: polymerase of hepatitis B virus (Hepatitis B virus genotype D subtype ayw)
# Construct: the Dane particles were isolated from HBV-infected human blood; from tissue; host or cells: Dane particles (HBV virions) isolated from HBV-infected human blood
# Sequence (P03156 whole entry): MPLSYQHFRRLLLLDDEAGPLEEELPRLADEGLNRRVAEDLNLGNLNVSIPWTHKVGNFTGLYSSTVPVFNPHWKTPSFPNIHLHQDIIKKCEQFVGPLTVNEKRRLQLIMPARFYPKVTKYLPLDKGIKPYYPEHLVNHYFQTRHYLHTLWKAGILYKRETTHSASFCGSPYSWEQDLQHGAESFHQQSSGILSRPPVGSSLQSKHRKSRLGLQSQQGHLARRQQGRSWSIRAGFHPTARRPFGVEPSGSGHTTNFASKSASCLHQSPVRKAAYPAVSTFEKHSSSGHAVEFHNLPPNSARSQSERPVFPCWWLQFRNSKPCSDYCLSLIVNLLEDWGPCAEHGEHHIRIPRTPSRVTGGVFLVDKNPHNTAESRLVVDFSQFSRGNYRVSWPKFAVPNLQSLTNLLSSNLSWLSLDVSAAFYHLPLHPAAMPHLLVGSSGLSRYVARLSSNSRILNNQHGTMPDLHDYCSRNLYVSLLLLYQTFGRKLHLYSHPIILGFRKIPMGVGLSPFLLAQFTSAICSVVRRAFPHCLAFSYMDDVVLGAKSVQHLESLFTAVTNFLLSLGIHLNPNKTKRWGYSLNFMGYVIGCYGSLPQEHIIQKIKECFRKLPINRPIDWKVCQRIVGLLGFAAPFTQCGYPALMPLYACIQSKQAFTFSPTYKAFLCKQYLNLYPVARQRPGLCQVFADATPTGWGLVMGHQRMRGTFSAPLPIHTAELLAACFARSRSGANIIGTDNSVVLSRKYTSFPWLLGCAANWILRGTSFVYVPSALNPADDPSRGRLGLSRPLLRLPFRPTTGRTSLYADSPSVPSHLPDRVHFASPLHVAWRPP
# methodNotes: in vitro endogenous DNA polymerase assay (Dane particles, radioactive nucleotide incorporation into viral DNA)
# Assay type: biochemical
# measurementParameters: 0.1 μg/ml; 37° C., 2 hours; Dane particle DNA polymerase
property: inhibition at 0.1 µg/mL (%)

molecule	systemUnderTest	property	readoutUnit	number
COC1C=COC2(C)Oc3c(C)c(O)c4c(O)c(c5c(c4c3C2=O)N(S(C)(=O)=O)C(C)N5)NC(=O)C(C)=CC=CC(C)C(O)C(C)C(O)C(C)C(OC(C)=O)C1C (stereo not drawn)	polymerase of hepatitis B virus (Hepatitis B virus genotype D subtype ayw)	inhibition at 0.1 µg/mL	%	84.6
CCCCS(=O)(=O)Oc1c(C=NN2CCCCC2)c2c(O)c3c(O)c(C)c4c(c13)C(=O)[C@@](C)(O/C=C/[C@H](OC)[C@@H](C)[C@@H](OC(C)=O)[C@H](C)[C@H](O)[C@H](C)[C@@H](O)[C@@H](C)/C=C/C=C(/C)C(=O)N2)O4	polymerase of hepatitis B virus (Hepatitis B virus genotype D subtype ayw)	inhibition at 0.1 µg/mL	%	55.7
CCCCS(=O)(=O)Oc1c(C=NN2CCOCC2)c2c(O)c3c(O)c(C)c4c(c13)C(=O)[C@@](C)(O/C=C/[C@H](OC)[C@@H](C)[C@@H](OC(C)=O)[C@H](C)[C@H](O)[C@H](C)[C@@H](O)[C@@H](C)/C=C/C=C(/C)C(=O)N2)O4	polymerase of hepatitis B virus (Hepatitis B virus genotype D subtype ayw)	inhibition at 0.1 µg/mL	%	92.5
CO[C@H]1/C=C/O[C@@]2(C)Oc3c(C)c(O)c4c(O)c(c(N)c(NS(=O)(=O)c5ccc(N)cc5)c4c3C2=O)NC(=O)/C(C)=C\C=C\[C@H](C)[C@H](O)[C@@H](C)[C@@H](O)[C@@H](C)[C@H](OC(C)=O)[C@@H]1C	polymerase of hepatitis B virus (Hepatitis B virus genotype D subtype ayw)	inhibition at 0.1 µg/mL	%	89

[A] CO[C@H]1/C=C/O[C@@]2(C)Oc3c(C)c(O)c4c(O)c(c(C=NN(C)C)c(OS(=O)(=O)CCCc5ccccc5)c4c3C2=O)NC(=O)/C(C)=C\C=C\[C@H](C)[C@H](O)[C@@H](C)[C@@H](O)[C@@H](C)[C@H](OC(C)=O)[C@@H]1C [(e)]
[B] CO[C@H]1/C=C/O[C@@]2(C)Oc3c(C)c(O)c4c(c3C2=O)C(=N)C(N)=C(NC(=O)/C(C)=C\C=C\[C@H](C)[C@H](O)[C@@H](C)[C@@H](O)[C@@H](C)[C@H](OC(C)=O)[C@@H]1C)C4=O
Prompt: I need your help: which of the pair A , B has higher inhibition at 0.1 µg/mL? Indicate your choice by writing its label.
Response: A

Source listed as patent US4743619A.
